# target-or-system: OAT1 (Solute carrier family 22 member 6) (Homo sapiens)
# Sequence (Q4U2R8 whole entry): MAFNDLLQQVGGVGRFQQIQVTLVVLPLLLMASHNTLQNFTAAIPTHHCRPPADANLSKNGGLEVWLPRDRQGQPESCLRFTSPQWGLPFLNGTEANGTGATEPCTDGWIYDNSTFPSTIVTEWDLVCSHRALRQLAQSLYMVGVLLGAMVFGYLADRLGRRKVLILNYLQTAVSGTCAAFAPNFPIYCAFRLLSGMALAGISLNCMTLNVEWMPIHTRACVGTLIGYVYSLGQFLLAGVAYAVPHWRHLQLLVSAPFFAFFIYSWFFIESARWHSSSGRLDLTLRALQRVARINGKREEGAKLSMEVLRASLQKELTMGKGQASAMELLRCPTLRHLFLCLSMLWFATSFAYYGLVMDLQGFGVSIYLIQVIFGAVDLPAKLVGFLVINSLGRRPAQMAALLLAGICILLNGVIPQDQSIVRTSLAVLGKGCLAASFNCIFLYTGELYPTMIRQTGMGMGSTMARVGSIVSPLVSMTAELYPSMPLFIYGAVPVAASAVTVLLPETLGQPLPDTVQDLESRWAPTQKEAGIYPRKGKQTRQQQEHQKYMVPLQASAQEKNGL
# experiment-description: TP_TRANSPORTER: inhibition of PAH uptake (PAH: 5 uM, ACV: 1000 uM) in OAT1-expressing S2 cells
# Assay type: functional, cell-based
# Set-up: scale not given: the % may be the effect or the level left
# run-parameters: probe PAH, read-out: Activity
reported-metric: activity at 1000 µM (%)

- compound: "Nc1nc2c(ncn2COCCO)c(=O)[nH]1 [ACYCLOVIR]"
  target-or-system: "OAT1 (Solute carrier family 22 member 6) (Homo sapiens)"
  reported-metric: "activity at 1000 µM"
  display-unit: "%"
  result-value: 67

----------
# target-or-system: OAT3 (Organic anion transporter 3) (Homo sapiens, UniProt Q8TCC7)
# Sequence (Q8TCC7 whole entry): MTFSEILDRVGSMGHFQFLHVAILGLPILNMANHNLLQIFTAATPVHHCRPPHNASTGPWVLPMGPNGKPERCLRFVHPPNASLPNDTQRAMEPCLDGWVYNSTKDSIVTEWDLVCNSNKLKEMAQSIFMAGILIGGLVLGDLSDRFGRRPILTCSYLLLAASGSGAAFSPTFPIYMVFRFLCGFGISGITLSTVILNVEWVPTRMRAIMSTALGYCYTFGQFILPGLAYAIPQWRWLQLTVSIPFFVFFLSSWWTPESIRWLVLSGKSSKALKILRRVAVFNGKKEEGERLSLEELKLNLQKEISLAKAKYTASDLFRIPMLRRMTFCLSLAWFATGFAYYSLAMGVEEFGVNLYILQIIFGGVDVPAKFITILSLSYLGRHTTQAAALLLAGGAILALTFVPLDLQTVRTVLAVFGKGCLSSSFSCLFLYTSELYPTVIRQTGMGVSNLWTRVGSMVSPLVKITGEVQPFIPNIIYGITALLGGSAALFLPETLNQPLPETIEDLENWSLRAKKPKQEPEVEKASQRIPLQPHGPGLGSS
# experiment-description: TP_TRANSPORTER: inhibition of Estrone sulfate uptake (E1S: 0.05 uM, ACV: 1000 uM) in OAT3-expressing S2 cells
# Type: functional, cell-based
# Set-up: scale not given: the % may be the effect or the level left
# run-parameters: mouse, probe Estrone sulfate (E1S), read-out: Activity

- substance-smiles: "Nc1nc2c(ncn2COCCO)c(=O)[nH]1"
  target-or-system: "OAT3 (Organic anion transporter 3) (Homo sapiens, UniProt Q8TCC7)"
  display-unit: "%"
  activity at 1000 µM: 64.3

----------
# target-or-system: OAT2 (Solute carrier family 22 member 7) (Homo sapiens)
# Sequence (Q9Y694 whole entry): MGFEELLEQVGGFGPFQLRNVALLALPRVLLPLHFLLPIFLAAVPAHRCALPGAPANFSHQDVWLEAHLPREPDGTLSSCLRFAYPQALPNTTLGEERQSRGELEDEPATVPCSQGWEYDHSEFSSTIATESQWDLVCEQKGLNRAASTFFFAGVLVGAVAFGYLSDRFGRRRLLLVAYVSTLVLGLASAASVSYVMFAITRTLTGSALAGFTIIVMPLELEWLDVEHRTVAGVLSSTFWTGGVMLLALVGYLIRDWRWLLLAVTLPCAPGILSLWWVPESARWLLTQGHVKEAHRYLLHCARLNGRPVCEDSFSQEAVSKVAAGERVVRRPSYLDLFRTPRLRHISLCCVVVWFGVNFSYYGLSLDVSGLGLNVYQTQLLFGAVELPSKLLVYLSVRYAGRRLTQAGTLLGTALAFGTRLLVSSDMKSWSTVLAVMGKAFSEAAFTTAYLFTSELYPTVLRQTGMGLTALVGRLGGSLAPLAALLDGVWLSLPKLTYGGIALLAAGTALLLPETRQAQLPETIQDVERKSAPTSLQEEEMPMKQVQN
# experiment-description: TP_TRANSPORTER: inhibition of PGF2alpha uptake (PGF2alpha: 0.005 uM, GCV: 1000 uM) in OAT2-expressing S2 cells
# Assay type: functional, cell-based
# Parameters: scale not given: the % may be the effect or the level left
# run-parameters: probe PGF2alpha, read-out: Activity

- substance-smiles: "Nc1nc(O)c2ncn(COC(CO)CO)c2n1"
  display-unit: "%"
  activity at 1000 µM: 63.3

----------
# target-or-system: OAT1 (Solute carrier family 22 member 6) (Homo sapiens)
# experiment-description: TP_TRANSPORTER: uptake in OAT1-expressing S2 cells
# Format: functional, cell-based

- substance-smiles: "Cc1cn([C@H]2C[C@H](N=[N+]=[N-])[C@@H](CO)O2)c(=O)[nH]c1=O"
  Km [µM]: 45.9
